# Tested on: MKL-2
# experimentalProtocol: qHTS assay to identify novel small-molecules to repurpose for Merkel cell carcinoma treatment (AID 1296009); also: % is scaled to controls: 0 for no effect and ±100 for the full control effect; nearly all actives have a fitted effect of over 60% in size
# appliedConditions: MCC and control cell lines, CellTiter-Glo viability, 72 h; series mostly up to 46 µM
Records with an inconclusive call do not appear. Calls of active or inactive are those of the source. Calls follow the shape of the dose curve; as a rule, active = well fitted inhibition curve with a large enough effect; inconclusive = small, poorly fitted or top-dose-only effect; inactive = flat fitted curve, though single readings scatter.
Give one outcome, nothing more. List: t for active, f for inactive

compound | label
Nc1cc(=O)[nH]c(N)n1 | f

Which outcome did this test record for the compound N[C@H](C(=O)O)c1ccc(O)cc1 ? f

Which outcome did this test record for the compound CCCCc1ncc(/C=C(\Cc2cccs2)C(=O)O)n1Cc1ccc(C(=O)O)cc1 ? f

Which outcome did this test record for the compound Cc1cccc(Nc2cc(Cl)nc(SCC(=O)O)n2)c1C ? f

Which outcome did this test record for the compound O=C(O)COc1nn(Cc2ccccc2)c2ccccc12 ? f

Which outcome did this test record for the compound O=C(O)CC(O)C(=O)O (stereo unspecified) ? f

###

# experimentalProtocol: Drug repurposing screens with cells derived from glioblastoma tumor samples (AID 1345199); also: % is scaled to controls: 0 for no effect and ±100 for the full control effect; nearly all actives have a fitted effect of over 40% in size
# appliedConditions: GBM patient neurospheres viability, ATP luminescence, 48 h; at 20 µM (top of the series); tumour line C
Records with an inconclusive call do not appear.
assayMetric: activity, negative = cell killing (%)
Dear colleague, please return just the value in %, with no unit written.

Consider the following illustrative entries.
molecule | endpointUnit | activity, negative = cell killing
CC(=O)c1ccc2c(c1)N(CCCN(C)C)c1ccccc1S2 | % | -20.2
CC(CN(C)C)CN1c2ccccc2CCc2ccccc21 (stereo unspecified) | % | -0.604
CCCCN(CCCC)CCCOC(=O)c1ccc(N)cc1 | % | -6.46
Nc1ccc(S(=O)(=O)NC(=O)c2ccccc2)cc1 | % | -23.5
C#CCN(C)Cc1ccccc1 | % | -8.08

Quick check: activity, negative = cell killing of OCCN1CCN(CCCN2c3ccccc3Sc3ccc(Cl)cc32)CC1 ? -18

Quick check: activity, negative = cell killing of C/C(=C(\CCOP(=O)(O)O)SC(=O)c1ccccc1)N(C=O)Cc1cnc(C)nc1N ? -2.37

Quick check: activity, negative = cell killing of COc1cc2[nH]c(=O)[nH]c(=O)c2cc1OC ? -13.5

Quick check: activity, negative = cell killing of NS(=O)(=O)c1cc2c(cc1C(F)(F)F)NC(Cc1ccccc1)NS2(=O)=O (stereo unspecified) ? -4.97

###

# System: MCC-26
# experimentalProtocol: qHTS assay to identify novel small-molecules to repurpose for Merkel cell carcinoma treatment (AID 1296009); also: % is scaled to controls: 0 for no effect and ±100 for the full control effect; nearly all actives have a fitted effect of over 60% in size
# appliedConditions: MCC and control cell lines, CellTiter-Glo viability, 72 h; series mostly up to 46 µM
Records with an inconclusive call do not appear. Activity calls are given as the source filed them. Calls follow the shape of the dose curve; as a rule, active = well fitted inhibition curve with a large enough effect; inconclusive = small, poorly fitted or top-dose-only effect; inactive = flat fitted curve, though single readings scatter.
assayMetric: activity change, negative = cytotoxicity

molecule | systemTested | activity change, negative = cytotoxicity
CNC(=O)Oc1ccc2c(c1)[C@]1(C)CCN(C)[C@@H]1N2C | MCC-26 | inactive
O=c1[nH]cnc2c1ncn2[C@@H]1O[C@H](CO)[C@@H](O)[C@H]1O | MCC-26 | inactive
CN(C)CCCO[C@@H]1[C@H]2OC(C)(C)O[C@H]2O[C@@H]1C(O)CO (stereo partly specified) | MCC-26 | inactive
CN(C)CCN(Cc1ccccc1)c1ccccn1 | MCC-26 | inactive
CCn1cc(C(=O)O)c(=O)c2cnc(N3CCNCC3)nc21 | MCC-26 | inactive
CN1[C@@H]2CC[C@H]1CC(OC(=O)C(O)c1ccccc1)C2 (stereo partly specified) | MCC-26 | inactive
N[C@H](C(=O)O)c1ccc(O)cc1 | MCC-26 | inactive
C[C@](N)(Cc1ccc(O)cc1)C(=O)O | MCC-26 | 5.04% [at 4.84 µM] (inactive)

Quick check: activity change, negative = cytotoxicity of C[C@]12CC[C@@H]3c4ccc(O)cc4CC[C@H]3[C@@H]1CCC2=O ? inactive

Quick check: activity change, negative = cytotoxicity of OCc1cc(C(O)CNCCCCCCOCCCCc2ccccc2)ccc1O (stereo unspecified) ? inactive

Quick check: activity change, negative = cytotoxicity of C=Cc1c(C)c2cc3[nH]c(cc4nc(cc5nc(cc1[nH]2)C(C)=C5CCC(=O)O)C(CCC(=O)O)=C4C)c(C)c3C=C ? inactive
